tested on: human APOE RNA; test: Activity in APOE C57BL/6NTac-Apoeem7250 knock-in mice, single ICV bolus, 16 weeks (Example 12); type: in vivo; conditions: cortex; single ICV bolus 300 μg; 16 weeks post treatment; normalized to mouse Ppia
Strand notation (5' to 3'): a small letter for the sugar, then the base; units joined by * are phosphorothioate-linked, units joined directly phosphodiester-linked; [ ] holds rarer units or linkages, { } end groups; capitals alone tell only the bases. [ms] = mesyl phosphoramidate linkage; e = 2'-O-(2-methoxyethyl) (MOE); k = constrained ethyl (cEt); [5mC] = 5-methylcytosine; d = 2'-deoxy (DNA)
Quick list: APOE RNA (% control) Cortex per entry.
property.measured: APOE RNA (% control) Cortex

INSERT INTO results (substance, value_measured) VALUES
  ('1681006: 5-10-5 MOE gapmer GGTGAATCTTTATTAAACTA, linkages ssssszsssszzszzssss (antisense eG*eG*eT*eG*eA*dA[ms]dT*d[5mC]*dT*dT*dT[ms]dA[ms]dT*dT[ms]dA[ms]eA*eA*e[5mC]*eT*eA) [compound 1681006]', 120),
  ('1785616 (k[5mC]*dT[ms]dT[ms]kG*dG[ms]kT*dG[ms]dA[ms]dA[ms]dT*d[5mC]*dT*dT*dT*dA*dT[ms]kT*kA*dA[ms]kA; antisense) [Compound 1785616]', 47),
  ('1693042: 5-10-5 MOE gapmer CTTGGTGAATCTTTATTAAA, linkages sssosszzzssssssssss (antisense e[5mC]*eT*eT*eGeG*dT*dG[ms]dA[ms]dA[ms]dT*d[5mC]*dT*dT*dT*dA*eT*eT*eA*eA*eA) [compound 1693042]', 90),
  ('1785619 (k[5mC]*dT[ms]dT[ms]kG*dG[ms]kT*dG*dA[ms]dA[ms]dT*d[5mC]*dT*dT*dT*dA[ms]dT*kT*kA*dA[ms]kA) [Compound 1785619]', 40);

meta.source: patent US20250353873A1
